Test: in vivo
Details: male, C2 albino, rat, iv, maximum concentration (Tmax) in blood
quantity measured: Tmax (min)
Output spec: scalar in min, unitless text.

Data request: I would be grateful if you could share the reported Tmax for COc1ccc(CCN2CCC(Nc3nc4ccccc4n3Cc3ccc(F)cc3)CC2)cc1 .
Data returned: 28

====

Target: Tau Filaments in Vitro (Homo sapiens, UniProt P10636)
Sequence (P10636 1-441 isoform P10636-8): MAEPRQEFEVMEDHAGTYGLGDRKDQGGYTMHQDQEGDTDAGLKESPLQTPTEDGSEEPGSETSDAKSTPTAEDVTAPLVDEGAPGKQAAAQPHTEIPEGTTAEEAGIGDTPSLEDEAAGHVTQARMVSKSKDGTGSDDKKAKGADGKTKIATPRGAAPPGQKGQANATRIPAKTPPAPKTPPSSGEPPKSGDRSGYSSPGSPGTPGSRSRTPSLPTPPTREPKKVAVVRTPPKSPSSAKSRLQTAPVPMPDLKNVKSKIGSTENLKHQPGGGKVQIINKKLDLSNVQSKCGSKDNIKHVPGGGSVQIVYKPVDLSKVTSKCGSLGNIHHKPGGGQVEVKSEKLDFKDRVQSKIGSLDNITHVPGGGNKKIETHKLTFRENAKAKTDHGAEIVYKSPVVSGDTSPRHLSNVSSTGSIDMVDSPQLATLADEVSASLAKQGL
quantity measured: Ki (nM)
Output spec: scalar in nM, unitless text.

Data request: I would be grateful if you could share the reported Ki for Cc1c(OCC(F)(F)F)ccnc1C[S+]([O-])c1nc2ccccc2[nH]1 (stereo not shown) .
Data returned: 2.7

====

Target: Alzheimer PHF (Homo sapiens)
Sequence (P10636 623-758 limits assumed): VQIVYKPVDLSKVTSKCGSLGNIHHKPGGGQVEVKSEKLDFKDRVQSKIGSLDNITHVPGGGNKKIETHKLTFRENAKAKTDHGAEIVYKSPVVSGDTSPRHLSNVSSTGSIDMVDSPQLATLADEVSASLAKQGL
quantity measured: pKi
Hey, just a heads up that pKi is the negative log base 10 of the concentration in molar.

Data request: I would be grateful if you could share the reported pKi for Cc1c(OCC(F)(F)F)ccnc1C[S+]([O-])c1nc2ccccc2[nH]1 (stereo not shown) .
Data returned: 6.08

====

Target: human tau protein aggregates (PHFs)
Experiment: ^3H-Astemizole saturation binding to tau protein aggregates
Details: saturation test, Tau Protein Aggregates
quantity measured: pKd
Hey, just a heads up that pKd is the negative log base 10 of the concentration in molar.

Data request: I would be grateful if you could share the reported pKd for COc1ccc(CCN2CCC(Nc3nc4ccccc4n3Cc3ccc(F)cc3)CC2)cc1 .
Data returned: 8.40

====

Experiment: in vivo
Conditions: male, C2 albino, rat, iv, maximum concentration (Tmax) in the brain
quantity measured: Tmax (min)
Output spec: scalar in min, unitless text.

Data request: I would be grateful if you could share the reported Tmax for COc1ccc(CCN2CCC(Nc3nc4ccccc4n3Cc3ccc(F)cc3)CC2)cc1 .
Data returned: 55
